# System: HIV-infected MT-4 cells
# experimental_details: Inhibition of the HIV-induced cytopathic effect in MT-4 cells (MTT)
# Format: cell-based
# condition: Human immunodeficiency virus 1, MT4, read-out: IC50 (50% inhibitory concentration; dose achieving 50% protection); HIV-infected MT-4 cells, MTT, OD 540 nm
reported_property: pIC50
Remember, pIC50 is on a log scale: it is -log10 of the molar concentration.

Below, each entry is followed by its recorded pIC50 result.
[
  {
    "molecule": "Cc1cc(C#N)cc(C)c1Oc1nc(Nc2ccc(C#N)cc2)nc(CO)c1Br",
    "pIC50": 8.40
  },
  {
    "molecule": "Cc1cc(C)c(Nc2cc(C(N)=O)nc(Nc3ccc(C#N)cc3)n2)c(C)c1",
    "pIC50": 8.60
  },
  {
    "molecule": "N#Cc1ccc(Nc2nc(Cc3c(Cl)cccc3Cl)nc(N3CC(O)CO3)n2)cc1 (stereo not shown)",
    "pIC50": 8.60
  }
]

Let us move to another entry and its pIC50.
Task: Item: "CNC(=O)c1cc(Nc2c(C)cc(C)cc2C)nc(Nc2ccc(C#N)cc2)n1" Test system: HIV-infected MT-4 cells Read-out: pIC50 Value: ?
Result: 8.30
